Test system: RSV strain A2
Assay: RSV antiviral cytoprotection assay in Hep2 cells (RSV-induced cytopathic effect, Cell TiterGlo)
Type: cell-based, Respiratory Syncytial Virus (RSV)
Conditions: human respiratory syncytial virus, HEp-2, 0.5 μM compound; RSV A2-infected Hep2 cells; % inhibition calculated from 4-parameter dose response curve, normalized to 0% and 100%; read-out: Percent inhibition at 0.5 μM
For each record, write down the corresponding inhibition at 0.5 µM.
One number for each entry, in %.

See these solved cases before continuing.
item_smiles=Cc1cn2nc([C@@H]3CCCCN3C(=O)c3cc(I)ccn3)cc2nc1N1C[C@@H](C#N)[C@@H](O)C1 unit_spec=% observed_measurement=61
item_smiles=COc1cccc(C(=O)N2CCCC[C@H]2c2cc3nc(N4CC[C@H](N)C4)c(C)cn3n2)c1C unit_spec=% observed_measurement=100
item_smiles=Cc1cn2nc([C@@H]3CCCCN3C(=O)c3cn4ncccc4n3)cc2nc1N1CC[C@H](N)C1 unit_spec=% observed_measurement=16

// next item, inhibition at 0.5 µM requested
Exercise: GET /values?readout=inhibition at 0.5 µM&system=RSV strain A2&item= "Cc1ccc(C(=O)N2CCCC[C@H]2c2cc3nc(N4CC[C@H](N)C4)c(C)cn3n2)c(Cl)c1"
Solution: 99

###

For each record, write down the corresponding inhibition at 0.5 µM.
System: RSV strain A2
Experiment: RSV antiviral cytoprotection assay in Hep2 cells (RSV-induced cytopathic effect, Cell TiterGlo)
Type: cell-based, Respiratory Syncytial Virus (RSV)
Conditions: human respiratory syncytial virus, HEp-2, 0.5 μM compound; RSV A2-infected Hep2 cells; % inhibition calculated from 4-parameter dose response curve, normalized to 0% and 100%; read-out: Percent inhibition at 0.5 μM
Numbers only, in %.

See these solved cases before continuing.
molecule="Cc1ccc(N2CCCS2(=O)=O)c(C(=O)N2CCCC[C@H]2c2cc3nc(N4C[C@@H](C#N)[C@@H](O)C4)c(C)cn3n2)c1 [Compound 197]" endpoint_name="inhibition at 0.5 µM" observed_measurement=100
molecule="Cc1cn2nc([C@@H]3CCCCN3C(=O)c3cc(Cl)ccc3NS(C)(=O)=O)cc2nc1N1CCN[C@H](Cc2ccccc2)C1 [Compound 17]" endpoint_name="inhibition at 0.5 µM" observed_measurement=70
molecule="Cc1ccc(C(=O)N2CCCC[C@H]2c2cc3nc(N4C[C@@H](C#N)[C@@H](O)C4)c(C)cn3n2)c(Cl)c1 [Compound 131]" endpoint_name="inhibition at 0.5 µM" observed_measurement=96
molecule="Cc1cn2nc([C@@H]3CCCCN3C(=O)c3cccc4cc[nH]c34)cc2nc1N1C[C@@H](C#N)[C@@H](O)C1 [Compound 151]" endpoint_name="inhibition at 0.5 µM" observed_measurement=100
molecule="Cc1cn2nc([C@@H]3CCCCN3C(=O)c3cccc4ccnn34)cc2nc1N1C[C@@H](C#N)[C@@H](O)C1 [Compound 135]" endpoint_name="inhibition at 0.5 µM" observed_measurement=100

Quick batch: inhibition at 0.5 µM for everything below.
1. COc1ccc2ccccc2c1C(=O)N1CCCC[C@H]1c1cc2nc(N3CC[C@H](N)C3)c(C)cn2n1 [Compound 97]
2. Cc1cn2nc([C@@H]3CCCCN3C(=O)c3cc(Br)ccc3NS(C)(=O)=O)cc2nc1N1C[C@@H](C#N)[C@@H](O)C1 [Compound 199]
3. Cc1cn2nc([C@@H]3CCCCN3C(=O)c3cccc(C)c3C)cc2nc1N1C[C@@H](C#N)[C@@H](O)C1 [Compound 169]
4. Cc1cn2nc([C@@H]3CCCCN3C(=O)c3ncccc3Cl)cc2nc1N1C[C@@H](C#N)[C@@H](O)C1 [Compound 115]
5. Cc1cn2nc([C@@H]3CCCCN3C(=O)c3ccc(Cl)c(Cl)c3)cc2nc1N1C[C@@H](C#N)[C@@H](O)C1 [Compound 177]
6. Cc1cn2nc([C@@H]3CCCCN3C(=O)c3cccc4c3OCO4)cc2nc1N1C[C@@H](C#N)[C@@H](O)C1 [Compound 140]
7. Cc1cn2nc([C@@H]3CCCCN3C(=O)c3cc(Cl)ccc3NS(C)(=O)=O)cc2nc1N1C[C@H](C)NC[C@H]1C [Compound 24]
8. Cc1cc(F)c(F)cc1C(=O)N1CCCC[C@H]1c1cc2nc(N3CC[C@H](N)C3)c(C)cn2n1 [Compound 75]

Solution:
1: 100; 2: 100; 3: 100; 4: 98; 5: 99; 6: 100; 7: 30; 8: 100

Exercise: Request the reported inhibition at 0.5 µM associated with Cc1cn2nc([C@@H]3CCCCN3C(=O)c3ncccc3Br)cc2nc1N1CC[C@H](N)C1 [Compound 76]
Solution: 99

###

For each record, write down the corresponding inhibition at 0.5 µM.
Tested on: RSV strain A2
Experiment: RSV antiviral cytoprotection assay in Hep2 cells (RSV-induced cytopathic effect, Cell TiterGlo)
Type: cell-based, Respiratory Syncytial Virus (RSV)
Conditions: human respiratory syncytial virus, HEp-2, 0.5 μM compound; RSV A2-infected Hep2 cells; % inhibition calculated from 4-parameter dose response curve, normalized to 0% and 100%; read-out: Percent inhibition at 0.5 μM
Numbers only, in %.

See these solved cases before continuing.
molecule="COc1ccccc1C(=O)N1CCCC[C@H]1c1cc2nc(N3CC[C@H](N)C3)c(C)cn2n1 [Compound 27]" observed_measurement=100
molecule="Cc1cn2nc([C@@H]3CCCCN3C(=O)c3cc(Cl)ccc3NS(C)(=O)=O)cc2nc1N1C[C@@H]2C[C@H]1CN2 [Compound 18]" observed_measurement=70
molecule="Cc1cccc(C(=O)N2CCCC[C@H]2c2cc3nc(N4C[C@@H](C#N)[C@@H](O)C4)c(C)cn3n2)n1 [Compound 176]" observed_measurement=97

Quick batch: inhibition at 0.5 µM for everything below.
1. Cc1cn2nc([C@@H]3CCCCN3C(=O)c3cc(Cl)ccc3C(F)(F)F)cc2nc1N1CC[C@H](N)C1 [Compound 106]
2. Cc1cn2nc([C@@H]3CCCCN3C(=O)c3cccc(C(F)(F)F)n3)cc2nc1N1C[C@@H](C#N)[C@@H](O)C1 [Compound 148]
3. Cc1cn2nc([C@@H]3CCCCN3C(=O)c3cc(F)ccc3OC(F)(F)F)cc2nc1N1C[C@@H](C#N)[C@@H](O)C1 [Compound 122]

Solution:
100
77
100

Quick batch: inhibition at 0.5 µM for everything below.
1. Cc1cn2nc([C@@H]3CCCCN3C(=O)c3cc(F)cc4nc(C)c(C)nc34)cc2nc1N1CC[C@H](N)C1 [Compound 62]
2. Cc1cn2nc([C@@H]3CCCCN3C(=O)c3cccc4c3CCCN4)cc2nc1N1C[C@@H](C#N)[C@@H](O)C1 [Compound 139]

Solution:
1: 11; 2: 100

Quick batch: inhibition at 0.5 µM for everything below.
1. Cc1ccc(C(F)(F)F)c(C(=O)N2CCCC[C@H]2c2cc3nc(N4CC[C@H](N)C4)c(C)cn3n2)c1 [Compound 35]
2. Cc1cn2nc([C@@H]3CCCCN3C(=O)c3cc(Cl)ccc3NS(C)(=O)=O)cc2nc1N1C[C@@H](C#N)[C@@H](OP(=O)(O)O)C1 [Compound 192]
3. Cc1cn2nc([C@@H]3CCCCN3C(=O)c3cccc(F)c3C)cc2nc1N1CC[C@H](N)C1 [Compound 25]
4. Cc1cn2nc([C@@H]3CCCCN3C(=O)c3cccc4n[nH]cc34)cc2nc1N1C[C@@H](C#N)[C@@H](O)C1 [Compound 175]
5. Cc1cn2nc([C@@H]3CCCCN3C(=O)c3cccc4n[nH]cc34)cc2nc1N1CC[C@H](N)C1 [Compound 108]
6. Cc1cn2nc([C@@H]3CCCCN3C(=O)c3[nH]c4c(C)ccc(C)c4c3C)cc2nc1N1C[C@@H](C#N)[C@@H](O)C1 [Compound 134]
7. Cc1cn2nc([C@@H]3CCCCN3C(=O)c3cc(Cl)ccc3NS(C)(=O)=O)cc2nc1N1C[C@@H]2CCN[C@@H]2C1 [Compound 16]

Solution:
1: 100; 2: 100; 3: 100; 4: 91; 5: 99; 6: 35; 7: 71

Quick batch: inhibition at 0.5 µM for everything below.
1. Cc1ccc(F)cc1C(=O)N1CCCC[C@H]1c1cc2nc(N3CC[C@H](N)C3)c(C)cn2n1 [Compound 78]
2. Cc1cn2nc([C@@H]3CCCCN3C(=O)c3cccc4ccncc34)cc2nc1N1CC[C@H](N)C1 [Compound 46]
3. Cc1ccnc(C(=O)N2CCCC[C@H]2c2cc3nc(N4CC(C#N)[C@@H](O)C4)c(C)cn3n2)c1 (stereo partly shown) [Compound 196]
4. Cc1ccc(S(N)(=O)=O)cc1C(=O)N1CCCC[C@H]1c1cc2nc(N3CC[C@H](N)C3)c(C)cn2n1 [Compound 59]
5. COc1cc2ccccc2cc1C(=O)N1CCCC[C@H]1c1cc2nc(N3C[C@@H](C#N)[C@@H](O)C3)c(C)cn2n1 [Compound 174]
6. Cc1cn2nc([C@@H]3CCCCN3C(=O)c3nccc4ccccc34)cc2nc1N1C[C@@H](C#N)[C@@H](O)C1 [Compound 163]
7. Cc1cn2nc([C@@H]3CCCCN3C(=O)c3cc(Cl)ccc3NS(C)(=O)=O)cc2nc1NC(C)CN (stereo partly shown) [Compound 5]

Solution:
1: 100; 2: 100; 3: 96; 4: 52; 5: 58; 6: 100; 7: 100
